Listed next: entries and their corresponding pEC50.
Target: human GPR40 (Homo sapiens, UniProt O14842)
Sequence (O14842 whole entry): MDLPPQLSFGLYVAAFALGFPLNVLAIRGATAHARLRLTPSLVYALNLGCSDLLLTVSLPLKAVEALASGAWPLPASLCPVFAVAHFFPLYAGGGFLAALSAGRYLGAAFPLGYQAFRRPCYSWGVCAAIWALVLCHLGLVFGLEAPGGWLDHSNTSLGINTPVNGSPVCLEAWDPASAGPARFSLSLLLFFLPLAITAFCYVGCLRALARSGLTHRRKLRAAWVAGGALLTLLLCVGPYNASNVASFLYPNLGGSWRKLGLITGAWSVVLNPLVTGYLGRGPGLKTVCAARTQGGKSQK
Assay: Receptor function regulating action (agonist action) for GPR40, intracellular calcium by FLIPR in CHO cells
Conditions: CHO cells expressing human GPR40; change of fluorescence intensity at 30 seconds after reaction initiation
pEC50: −log10 of the molar value.

compound	pEC50
Cc1cc(OCc2cc(-c3ccc(F)cc3)oc2C)ccc1CCC(=O)O [Example 5(8)]	7.00
Cc1cc(OCc2cc(-c3ccc(C(F)(F)F)cc3)oc2C(C)C)ccc1CCC(=O)O [Example 5(10)]	6.06
Cc1cc(OCc2cc(-c3ccc(C(F)(F)F)cc3)oc2C)ccc1CCC(=O)O [Example 6(4)]	6.74
